- System: 786-0 complex spheroid viability
- ASSAY_EXPLANATION: Anticancer human tumor 786-0 cell line growth inhibition;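 further: spheroids exposed to agents for seven days before readout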
- DETAILS: second compound 0.316 µM; first compound 0.01 µM; hits give low values
- Description: Multicellular complex tumor spheroid response to LSD1 Inhibitor Iadademstat in combination with a variety of drugs and investigational agents in selected tumor cell lines The current study was undertaken to assess response to LSD1 inhibitors in combination with standard-of-care drugs and investigational agents in solid tumor complex spheroid models as well as in the K-562 leukemia. […] Compounds. […] If the clinical Cmax for an agent had not been determined, the highest concentration tested was 10 microM. […]
Exercise: state measured viability, T/C for each of the compounds provided.

Would you please look over these solved cases?
> print(dat)
                                   compound                       test.system  observation.type  reported
1  Nc1ncn(C2CC(O)C(CO)O2)c(=O)n1 (centres undefined) + NC1CC1c1ccc(-c2cccc(O)c2)cc1  786-0 complex spheroid viability    viability, T/C      113%
2  CC(C)CC(NC(=O)CNC(=O)c1cc(Cl)ccc1Cl)B1OC(=O)CC(CC(=O)O)(C(=O)O)O1 (centres undefined) + NC1CCC(NC2CC2c2ccccc2)CC1  786-0 complex spheroid viability    viability, T/C     51.6%
3  Cn1ncnc1C1c2n[nH]c(=O)c3cc(F)cc(c23)NC1c1ccc(F)cc1 (centres undefined) + NC1CC1c1ccc(-c2cccc(O)c2)cc1  786-0 complex spheroid viability    viability, T/C       91%
4  CC(C)CC(NC(=O)CNC(=O)c1cc(Cl)ccc1Cl)B1OC(=O)CC(CC(=O)O)(C(=O)O)O1 (centres undefined) + NC1CC1c1ccc(-c2cccc(O)c2)cc1  786-0 complex spheroid viability    viability, T/C     59.3%

Give one value of viability, T/C per listed compound.
1. O=C(C=Cn1cnc(-c2cc(C(F)(F)F)cc(C(F)(F)F)c2)n1)NNc1cnccn1 + NC1CCC(NC2CC2c2ccccc2)CC1
2. O=C(C=Cn1cnc(-c2cc(C(F)(F)F)cc(C(F)(F)F)c2)n1)NNc1cnccn1 + NC1CC1c1ccc(-c2cccc(O)c2)cc1
3. COc1cc(Nc2ncc3c(n2)-c2ccc(Cl)cc2C(c2c(F)cccc2OC)=NC3)ccc1C(=O)O + NC1CCC(NC2CC2c2ccccc2)CC1
4. CC[C@@]1(O)C(=O)OCc2c1cc1n(c2=O)Cc2cc3c(CN(C)C)c(O)ccc3nc2-1 + NC1CCC(NC2CC2c2ccccc2)CC1
5. COc1cc(Nc2ncc3c(n2)-c2ccc(Cl)cc2C(c2c(F)cccc2OC)=NC3)ccc1C(=O)O + NC1CC1c1ccc(-c2cccc(O)c2)cc1

Ans.
["61.9%", "72.5%", "93.2%", "10.8%", "94.5%"]

###

- Test system: 786-0 complex spheroid viability
- ASSAY_EXPLANATION: Anticancer human tumor 786-0 cell line growth inhibition;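 further: spheroids exposed to agents for seven days before readout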
- DETAILS: second compound 0.316 µM; first compound 3.16 µM; hits give low values
OBSERVATION_TYPE: viability, T/C (%)
Answers are plain numbers, in %.

Give one value of viability, T/C per listed compound.
1. O=C(c1cc(Cc2n[nH]c(=O)c3ccccc23)ccc1F)N1CCN(C(=O)C2CC2)CC1 + NC1CC1c1ccc(-c2cccc(O)c2)cc1
2. CC1(C)CCC(CN2CCN(c3ccc(C(=O)NS(=O)(=O)c4ccc(NCC5CCOCC5)c([N+](=O)[O-])c4)c(Oc4cnc5[nH]ccc5c4)c3)CC2)=C(c2ccc(Cl)cc2)C1 + NC1CC1c1ccc(-c2cccc(O)c2)cc1

Ans.
1: 98.8; 2: 100

Qu. viability, T/C for CC1(C)CCC(CN2CCN(c3ccc(C(=O)NS(=O)(=O)c4ccc(NCC5CCOCC5)c([N+](=O)[O-])c4)c(Oc4cnc5[nH]ccc5c4)c3)CC2)=C(c2ccc(Cl)cc2)C1 + NC1CCC(NC2CC2c2ccccc2)CC1 ?
Ans. 106
